B1: Homeobox protein cut-like 2, residues 895 to 963; numbered along this chain, O14529 (parent)
chain: EVDTLELTRQVKEKLAKNGICQRIFGEKVLGLSQGSVSDMLSRPKPWSKLTQKGREPFIRMQLWLSDQL

variants of: B1; experiment: abundance fitness (aPCA) (normalised: wild type 0, dead -1); higher = more abundant; growth selection in yeast, the domain comes from the species named; conditions: Homo sapiens
Outcome label depends on abundance fitness relative to -0.3: at/above gives Criterion met, below gives Criterion not met.

Q: Exam item: decide whether the reported abundance fitness for D39W is at least -0.3.
Result: Criterion not met

Q: Now this one: Q34N
Result: Criterion met

Q: How about this variant: I20H
Result: Criterion not met

Q: Moving on to L15R
Result: Criterion met

Q: Record: I59Y
Result: Criterion met

Q: Same read-out for A16N ?
Result: Criterion met

Q: Could you do the same for S48I , please?
Result: Criterion met

Q: What do you have for T51G ?
Result: Criterion met

Q: Try the variant L30W
Result: Criterion met

Q: Moving on to the next variant: L32A
Result: Criterion met

Q: Request: K49F
Result: Criterion met

Q: Same again, this time with R43N
Result: Criterion met

Q: // query: M40K
Result: Criterion met

Q: What do you have for L5I ?
Result: Criterion met

Q: Subsequent entry: E1H
Result: Criterion met

Q: Try this variant too: F58C
Result: Criterion not met

Q: Now consider L65Y .
Result: Criterion not met

Q: Quick one: Q34D
Result: Criterion met

Q: And for F25Y ?
Result: Criterion not met

Q: Similarly, D39N ?
Result: Criterion met

Q: Same again, this time with K45P
Result: Criterion met

// provenance: the Human Domainome abundance scans (Beltran et al. 2025)
